- measured.on: Human Nav1.8 (Homo sapiens, UniProt Q9Y5Y9)
- Sequence (Q9Y5Y9 whole entry): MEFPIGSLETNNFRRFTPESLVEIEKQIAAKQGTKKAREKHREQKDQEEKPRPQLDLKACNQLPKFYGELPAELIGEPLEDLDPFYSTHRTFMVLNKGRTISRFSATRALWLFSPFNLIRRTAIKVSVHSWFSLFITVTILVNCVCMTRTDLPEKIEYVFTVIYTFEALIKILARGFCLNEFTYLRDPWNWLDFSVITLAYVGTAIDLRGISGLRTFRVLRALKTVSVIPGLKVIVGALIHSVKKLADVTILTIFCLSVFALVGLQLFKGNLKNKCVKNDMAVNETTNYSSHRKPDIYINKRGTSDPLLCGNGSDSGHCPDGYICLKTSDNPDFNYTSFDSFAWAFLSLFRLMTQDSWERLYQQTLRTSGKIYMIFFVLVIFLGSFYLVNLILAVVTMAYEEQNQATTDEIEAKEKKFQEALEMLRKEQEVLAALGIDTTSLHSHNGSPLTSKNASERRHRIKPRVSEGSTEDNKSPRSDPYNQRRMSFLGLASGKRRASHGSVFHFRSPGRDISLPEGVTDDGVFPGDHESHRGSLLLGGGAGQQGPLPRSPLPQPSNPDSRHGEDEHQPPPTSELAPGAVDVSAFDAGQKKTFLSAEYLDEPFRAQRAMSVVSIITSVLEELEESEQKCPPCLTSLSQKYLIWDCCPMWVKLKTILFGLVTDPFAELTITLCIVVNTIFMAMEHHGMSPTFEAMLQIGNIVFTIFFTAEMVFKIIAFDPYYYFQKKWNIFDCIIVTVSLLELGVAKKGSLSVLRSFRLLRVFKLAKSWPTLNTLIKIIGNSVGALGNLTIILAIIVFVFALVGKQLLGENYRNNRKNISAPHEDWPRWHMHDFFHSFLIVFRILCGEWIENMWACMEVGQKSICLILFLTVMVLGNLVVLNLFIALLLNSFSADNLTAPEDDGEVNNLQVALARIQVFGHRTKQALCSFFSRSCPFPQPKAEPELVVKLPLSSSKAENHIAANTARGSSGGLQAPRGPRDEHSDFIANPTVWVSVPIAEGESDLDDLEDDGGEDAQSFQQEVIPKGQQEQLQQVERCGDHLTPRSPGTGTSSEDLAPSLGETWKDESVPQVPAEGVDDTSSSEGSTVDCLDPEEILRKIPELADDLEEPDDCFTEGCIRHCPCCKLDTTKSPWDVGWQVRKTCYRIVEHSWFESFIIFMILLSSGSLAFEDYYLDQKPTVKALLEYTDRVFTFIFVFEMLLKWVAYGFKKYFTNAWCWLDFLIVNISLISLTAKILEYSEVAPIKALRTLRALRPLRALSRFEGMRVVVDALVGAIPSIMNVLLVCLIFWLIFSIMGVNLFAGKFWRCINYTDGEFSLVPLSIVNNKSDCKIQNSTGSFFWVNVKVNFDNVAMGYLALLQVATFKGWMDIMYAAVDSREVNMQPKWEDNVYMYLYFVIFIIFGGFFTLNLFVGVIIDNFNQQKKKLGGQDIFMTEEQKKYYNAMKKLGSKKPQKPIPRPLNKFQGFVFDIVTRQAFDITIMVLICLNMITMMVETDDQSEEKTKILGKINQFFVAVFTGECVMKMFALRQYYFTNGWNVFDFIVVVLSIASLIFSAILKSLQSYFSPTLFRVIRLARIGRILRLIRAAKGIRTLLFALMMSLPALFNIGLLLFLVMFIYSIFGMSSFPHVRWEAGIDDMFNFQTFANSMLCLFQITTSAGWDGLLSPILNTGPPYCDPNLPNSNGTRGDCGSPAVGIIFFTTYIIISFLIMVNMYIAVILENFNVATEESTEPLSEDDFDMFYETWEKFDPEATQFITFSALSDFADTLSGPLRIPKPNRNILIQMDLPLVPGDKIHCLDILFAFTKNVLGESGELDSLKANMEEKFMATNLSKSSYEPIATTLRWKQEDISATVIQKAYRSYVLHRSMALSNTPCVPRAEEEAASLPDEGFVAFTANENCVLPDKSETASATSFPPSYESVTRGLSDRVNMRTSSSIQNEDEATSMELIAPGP
- test.description: VIPR assay for Nav1.8 compounds (FRET membrane potential, deltamethrin-opened channels)
- measurement.conditions: HEK293 cells expressing human Nav1.8; deltamethrin as opener; read-out: affinity for the NaV1.8 channel (binding affinity; IC50 from VIPR assay)
- Description: The ability of the pyridine derivatives of the formula (I) to inhibit the NaV1.8 channel may be measured using the assay described below. VIPR Assay for Nav1.8 Compounds This screen is used to determine the effects of compounds on tetrodotoxin-resistant (TTX-R) sodium channels in Human Nav1.8 (HEK293) expressing cell line, utilising the technology of Aurora's fluorescent Voltage/Ion Probe Reader (VIPR). […]
pIC50: −log10 of the molar value.
measurement.type: pIC50

{"molecule": "CNC(=O)c1ccc(-c2cc(Cl)cc(Cl)c2Cl)c(N)n1 [Example 1]", "measurement.type": "pIC50", "numeric.result": 5.69}
